Target: RNA-binding protein pos-1 (Caenorhabditis elegans, UniProt G5EF15)
Sequence (G5EF15 whole entry): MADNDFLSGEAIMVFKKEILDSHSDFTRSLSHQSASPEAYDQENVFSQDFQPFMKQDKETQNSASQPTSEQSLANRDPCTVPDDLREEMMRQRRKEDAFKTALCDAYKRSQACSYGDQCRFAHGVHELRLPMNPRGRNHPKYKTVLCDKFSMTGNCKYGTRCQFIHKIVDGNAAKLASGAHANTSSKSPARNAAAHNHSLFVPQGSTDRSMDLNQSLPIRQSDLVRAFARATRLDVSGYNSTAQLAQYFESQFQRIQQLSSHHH
Test: disruptors of C. elegans POS-1 RNA interaction – biochemical, fluorescence polarization, dose response (AID 1964);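 further: purified POS-1 fused to maltose binding protein made in E. coli; potency of compounds blocking POS-1 binding to fluorescent RNA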
Active and inactive are the calls of the source.
MEASURE: EC50

• CC1=CC(C)(C)N2C(=O)C3(C(C#N)=C(N)OC4=C3C(=O)CCC4)c3c(C)c(C)cc1c32 (centres undefined) = > 300 µM (not active)
• CCC(C)n1c(=N)c(C#N)cc2c(=O)n3cccc(C)c3nc21 (centres undefined) = 296 µM (active)
• Cc1ccc(/C(O)=C/c2nc3cc(C)ccc3oc2=O)cc1 = 7.64 µM (inconclusive)
• Clc1cc(-c2ccc(/C=N/n3cnnc3)o2)ccc1Br = 59.4 µM (active)
• CCCC(C)NC(=O)c1ccc(C2SCC(=O)N2Cc2ccco2)cc1 (centres undefined) = > 300 µM (not active)
• CC(C)OCCCn1/c(=N/C(=O)c2cccs2)c(C#N)cc2c(=O)n3ccccc3nc21 = > 300 µM (not active)
• COc1cccc(C(=O)NNc2nc(C)cc(C)n2)c1 = > 300 µM (not active)
• CCOC(=O)c1cc(CC)sc1NC=C1C(=O)NC(=S)NC1=O = > 300 µM (not active)
• COc1cccc(F)c1C(=O)NC(=O)Nc1ccc2nc(C)oc2c1 = 17.8 µM (active)

----------
Test system: INS1
Assay: INS-1E survival protection against cytokine death – cell-based, luminescence, retest, dose response (AID 449756);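 further: cell death triggered by IL-1 beta plus TNF-alpha plus IFN-gamma mixture; protective hits raise ATP signal compared with cytokine alone wells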
Format: functional
Details: Rattus norvegicus, INS1
Calls of active or inactive are those of the source.
This section presents molecules with their documented AC50 values.
MEASURE: AC50

* O=C(Nc1cc(Sc2ccccn2)cc([N+](=O)[O-])c1)c1cccc(F)c1 | 5.55 µM (active)
* COc1ccc(Nc2ccc3c(c2)=NC2(CCCCC2)[N+]=3[O-])cc1 | 1.67 µM (active)
* CCOc1cc(/C=N/NC(=O)c2cc(-c3cccc(OC)c3)nc3ccccc23)ccc1O | 8.15 µM (active)
* C[C@H]1CCC/C=C/[C@@H]2C[C@H](O)C[C@H]2[C@H](O)/C=C/C(=O)O1 [BREFELDIN A] | 1.03 µM (active)
* CCC(CO)Oc1cc(NCc2ccc(C(C)(C)C)cc2)c2ncn(C(C)C)c2c1 (stereo not given) | 3.07 µM (active)

----------
Experiment: blockers of CRF-binding protein–CRF-R2 complex – cell-based, uHTS hits, 384-well, dose response (AID 651639)
Type: functional, Homo sapiens
Conditions: read-out: IC50_Mean
Active and inactive are the calls of the source.
Possible outcomes: YES (active), NO (inactive)

• O=C1CC(c2ccc(Cl)cc2)SC(N(c2ccccc2)c2ccccc2)=N1 (stereo unspecified) = YES
• CC(C)Cc1csc(NC(=O)c2ccc(Cl)cc2)c1C(=O)O = YES
• CC1CCCCC1NC(=O)CCCCCn1c(=S)[nH]c2ccsc2c1=O (stereo unspecified) = NO
• Cc1nn(-c2cc(C(F)(F)F)ccc2Cl)c2nc(C(Cl)(Cl)Cl)nc(O)c12 = YES
• NC(Cc1ccc([N+](=O)[O-])cc1)=NOC(=O)c1ccc(Br)cc1 = YES
• CCCCOC1CC(c2ccc(OCc3ccc(OC)cc3)c(OC)c2)N(C)O1 (stereo unspecified) = NO
